Cited source: paper PMC5573973

biological target: PAL from Petroselinum crispum (PcPAL) (Petroselinum crispum, UniProt P24481)
endpoint_name: Ki

Item NC(C1(c2ccccc2)CC1)P(=O)(O)O.O (racemic) [(±)‐6] : provide Ki
> 1 mM

---

biological target: Y110F mutant of PcPAL (Petroselinum crispum, UniProt P24481, Y110F); experiment: Isothermal titration calorimetry with Y110F-PcPAL; conditions: PcPAL_Y110F K d, ITC, pH 8.0, 30 °C
Reported Kd values follow for various compounds
Respond with the bare value in µM.

Item N[C@H](Cc1ccccc1)C(=O)O [(R)‐1, D‐phenylalanine] : provide Kd
29.1

As a next step, examine the compound that follows.
Item N[C@@H](Cc1ccccc1)C(=O)O [(S)‐1, L‐phenylalanine] : provide Kd
23
